Just for reference, ChEMBL document CHEMBL1136224 is where these values come from.

As shown below, each of these compounds has a reported pIC50 value.
Tested on: MCF7
Test: Concentration required to inhibit MCF-7 cell growth
Assay type: functional, cell-based
Conditions: Homo sapiens
pIC50: −log10 of the molar value.

Reference set, count: 2
compound=NC(=O)c1csc([C@@H]2O[C@H](CO)[C@@H](F)[C@H]2O)n1 result="< 3.00"
compound="NC(=O)c1csc([C@@H]2O[C@H](CO)[C@@H](O)[C@H]2O)n1 [TIAZOFURIN]" result=5.07

Consider the compound `CC(=O)N[C@H]1[C@@H](O)[C@H](c2nc(C(N)=O)cs2)O[C@@H]1CO` and give its recorded pIC50.
< 3.00

---

Tested on: HL-60
Assay: Concentration required to inhibit HL-60 cell growth
Assay type: functional, cell-based
Conditions: Homo sapiens
pIC50: −log10 of the molar value.
quantity: pIC50

item_smiles=NC(=O)c1csc([C@@H]2O[C@H](CO)[C@@H](F)[C@H]2O)n1 readout_number=4.98

P: NC(=O)c1csc([C@@H]2O[C@H](CO)[C@@H](O)[C@H]2O)n1
Q: CC(=O)N[C@H]1[C@@H](O)[C@H](c2nc(C(N)=O)cs2)O[C@@H]1CO
Which record shows the lower pIC50: the first, P , or the second, Q ? Returns: label corresponding to the selected item.
Q
